Tested on: NCI-H2122
assay.protocol: combination cScore with adagrasib (Bliss gap around IC50) (%PoC); higher = stronger additive effect
# binarize combination cScore with adagrasib: threshold 8 inclusive, high side Y, low side N

As a guide, the following entries are already answered.
[
  {
    "compound": "COc1cc2nc(C)nc(N[C@H](C)c3cc(N)cc(C(F)(F)F)c3)c2cc1O[C@H]1CCOC1 [BI-3406 (SOSi)] + C=C(F)C(=O)N1CCN(c2nc(OC[C@@H]3CCCN3C)nc3c2CCN(c2cccc4cccc(Cl)c24)C3)C[C@@H]1CC#N",
    "category.label": "Y"
  },
  {
    "compound": "Nc1nc(Cl)nc2c1ncn2[C@@H]1O[C@H](CO)[C@@H](O)[C@@H]1F [Clofarabine] + C=C(F)C(=O)N1CCN(c2nc(OC[C@@H]3CCCN3C)nc3c2CCN(c2cccc4cccc(Cl)c24)C3)C[C@@H]1CC#N",
    "category.label": "N"
  },
  {
    "compound": "COc1cc(OC2CCN(C)CC2)ccc1Nc1ncc2c(n1)n(C1CCCC1)c(=O)n2C [AZ3146] + C=C(F)C(=O)N1CCN(c2nc(OC[C@@H]3CCCN3C)nc3c2CCN(c2cccc4cccc(Cl)c24)C3)C[C@@H]1CC#N",
    "category.label": "N"
  },
  {
    "compound": "C#Cc1cccc(Nc2ncnc3cc(OCCOC)c(OCCOC)cc23)c1 [Erlotinib] + C=C(F)C(=O)N1CCN(c2nc(OC[C@@H]3CCCN3C)nc3c2CCN(c2cccc4cccc(Cl)c24)C3)C[C@@H]1CC#N",
    "category.label": "Y"
  },
  {
    "compound": "CN1CCN(c2ccc(-c3cccc(CN4CCOCC4)c3)cc2NC(=O)c2c[nH]c(=O)cc2C(F)(F)F)CC1 [OICR-9429] + C=C(F)C(=O)N1CCN(c2nc(OC[C@@H]3CCCN3C)nc3c2CCN(c2cccc4cccc(Cl)c24)C3)C[C@@H]1CC#N",
    "category.label": "N"
  },
  {
    "compound": "Cc1ccc(NC(=O)c2ccc(CN3CCN(C)CC3)cc2)cc1Nc1nc(-c2cccnc2)cs1 [Masitinib] + C=C(F)C(=O)N1CCN(c2nc(OC[C@@H]3CCCN3C)nc3c2CCN(c2cccc4cccc(Cl)c24)C3)C[C@@H]1CC#N",
    "category.label": "N"
  }
]

Consider the record given below.
Request: I'd appreciate it if you could say whether CC/C(=C(\c1ccccc1)c1ccc(OCCN(C)C)cc1)c1ccccc1 [Tamoxifen] + C=C(F)C(=O)N1CCN(c2nc(OC[C@@H]3CCCN3C)nc3c2CCN(c2cccc4cccc(Cl)c24)C3)C[C@@H]1CC#N has combination cScore with adagrasib at least equal to 8.
Result: Y
